# test.description: Rat hepatocytes metabolic stability assay
# Format: in vitro ADME
# experimental.conditions: male, cryopreserved hepatocytes; rat hepatocytes 1×10^6 viable cells/mL
# Protocol: Rat/Human Hepatocytes Metabolic Stability Assay 2) 30 mM stock solutions of test compounds were prepared in DMSO. Thawing medium and supplement incubation medium (serum-free) were placed in a 37° C. water bath for at least 15 minutes prior to use. […] 4) Cell viability and density were counted using a Trypan Blue exclusion, and then cells were diluted with serum-free incubation medium to a working cell density of 1×10^6 viable cells/ml. […]
value.kind: half-life at 5 μM (min)
The reply should be a number in min, with the unit left off.

Some solved cases for reference:
CC(=O)N[C@H](C(=O)OCCCC(=O)O)C(C)C [Compound 67] : 131
CC(=O)NCC(=O)OCCCC(=O)O [Compound 66, 4-(2-acetamidoacetoxy)butanoic Acid] : 16.7

get_value(item= CC(C)[C@H](N)C(=O)OCCCC(=O)O [Compound 58] , readout=half-life at 5 μM) returns 46.7

====

# test.description: Rat pharmacokinetic study
# experimental.conditions: male, Sprague-Dawley, plasma, po, 50 mg/kg
Where a name gives a salt, the structure may show the parent alone.
value.kind: Tmax (min)
Field: numeric (min). Do not append units.

What the record says about O=C(O)CCCO [GHB sodium salt] : Tmax is 17

====

# test.description: Rat liver S9 fractions metabolic stability assay
# experimental.conditions: both, pooled liver S9 fractions
value.kind: half-life at 5 μM (min)
// return numeric value only (unit: min, not printed)

Study these solved cases before continuing.
Cl.N[C@@H](Cc1ccccc1)C(=O)OCCCC(=O)O [hydrochloride salt of Compound 57] : 2.48
CC(OC(=O)OCCCC(=O)O)OC(=O)c1ccccc1 (stereo not drawn) : 17.5
CC(=O)N[C@H](C(=O)OCCCC(=O)O)C(C)C : 74.2
O=C(O)CCCOC(=O)Oc1ccccc1 : 8.5
CC(C)C(=O)NCC(=O)OCCCC(=O)O : 62.7

half-life at 5 μM for CC(=O)NCC(=O)OCCCC(=O)O is 8

====

# test.description: Human hepatocytes metabolic stability assay
# Type: in vitro ADME
# experimental.conditions: both sexes, cryopreserved hepatocytes; human hepatocytes 1×10^6 viable cells/mL
Listing of entries alongside the reported half-life at 5 μM.

Past entries and their recorded results:
CC(=O)NCC(=O)OCCCC(=O)O : 0.416 h
CC(C)[C@H](N)C(=O)OCCCC(=O)O : 2.67 h

Pending molecule:
Recorded half-life at 5 μM (molecule CC(=O)N[C@H](C(=O)OCCCC(=O)O)C(C)C ): 3.66 h

====

# experimental.conditions: both, human, pooled liver S9 fractions
Kind request: treat 60 min as inclusive, so half-life at 5 μM at 60 min or higher is MET, anything lower is NOT MET.

The following molecules have reported results that may help.
CC(=O)NCC(=O)OCCCC(=O)O [Compound 66, 4-(2-acetamidoacetoxy)butanoic Acid] : NOT MET
CC(C)C(=O)NCC(=O)OCCCC(=O)O [Compound 64, 4-(2-isobutyramidoacetoxy)butanoic acid] : NOT MET
CC(=O)N[C@H](C(=O)OCCCC(=O)O)C(C)C [Compound 67] : MET

Ask: Test whether the molecule Cl.N[C@@H](Cc1ccccc1)C(=O)OCCCC(=O)O [hydrochloride salt of Compound 57] records half-life at 5 μM of 60 min or higher.
Reply: NOT MET

Ask: Is half-life at 5 μM for CC(OC(=O)OCCCC(=O)O)OC(=O)c1ccccc1 (stereo not drawn) [Compound 89] at or above 60 min?
Reply: NOT MET

Ask: Answer whether half-life at 5 μM of O=C(O)CCCOC(=O)Oc1ccccc1 [Compound 32, 4-(phenoxycarbonyloxy)butanoic acid] is greater than or equal to 60 min.
Reply: NOT MET
